Each entry below carries its reported growth inhibition.
# Experimental details: NCI Yeast Anticancer Drug Screen. Data for the mlh1 rad18 strain (AID 175)
# Condition context: S. cerevisiae mlh1 rad18 strain growth inhibition; at 50.0 µM; active compounds read high
Compounds without any hit were thinned out: in the full panel of roughly 79,000, 15% have a hit.
Attribute measured: growth inhibition (%)

{"columns": ["Compound", "Observed value"],
 "data": [
  ["Oc1ccc(C2CCCC2)cc1", -17.4],
  ["O=C1CCCCC1CC1(O)C(=O)NC2CCC(Br)CC21 (configuration not stated)", 5.6],
  ["O=C1NC2OCC(O)C(O1)C2O (configuration not stated)", 16.3],
  ["CC([N+](=O)[O-])S(=O)(=O)c1ccccc1 (configuration not stated)", 5.5],
  ["Cc1ccc(-n2cnc(C(=N)C#N)c2N)cc1", -13.1],
  ["Cc1cn(C2CC(C)N(CCO)O2)c(=O)[nH]c1=O (configuration not stated)", -74.2],
  ["COc1cc2ccc3c4cc5c(cc4cnc3c2cc1OC)OCO5", -16.7]
]}

====

# Experimental details: NCI Yeast Anticancer Drug Screen. Data for the mlh1 rad18 strain (AID 175)
# Condition context: S. cerevisiae mlh1 rad18 strain growth inhibition; at 50.0 µM
Compounds without any hit were thinned out: in the full panel of roughly 79,000, 15% have a hit. Activity calls are given as the source filed them. Rule as the data show it: active = growth inhibition above about 70%; inactive = the rest.
Classes used: t = active, f = inactive

{"columns": ["Compound", "Category label"],
 "data": [
  ["O=C1CCCC2=C1CC1=C(CCCC1=O)N2c1ccccc1", "f"],
  ["COc1ccc(C#CC(O)C(F)(F)F)cc1 (stereo not given)", "f"],
  ["CC(=O)CC(C)(C)c1cc(CC(C)(C)C(N)=O)on1", "f"],
  ["CC(=O)c1cccc(C(C)=O)c1N=Cc1ccc(Cl)cc1", "f"],
  ["O=c1c(-c2ccc(O)cc2)coc2cc(OC3OC(CO)C(O)C(O)C3O)cc(O)c12 (stereo not given)", "f"],
  ["CC(=O)Nc1cc2c(cc1[N+](=O)[O-])-c1ccc([N+](=O)[O-])cc1C2=O", "f"],
  ["CC(C(=O)O)c1ncnn1-c1ccccc1 (stereo not given)", "f"],
  ["CC(=O)C1=C(C)N2C(=NC3=C(CCc4ccccc43)C2c2ccc(F)cc2)S1 (stereo not given)", "f"],
  ["CCCCOS(=O)(=O)c1ccc([N+](C)(C)C)cc1", "f"],
  ["CC(C(OC(=O)C1c2ccccc2-c2ccccc21)c1ccccc1)N(C)C (stereo not given)", "t"],
  ["CC(=O)c1cccc(NC(=O)Nc2cccc(O)c2)c1", "f"],
  ["Cc1ccccc1OCC1COCN(C(C)(C)C)CO1 (stereo not given)", "f"],
  ["CCCCCCCCCCCCCCCOc1ccc2ccccc2c1", "f"],
  ["Nc1cccc2c(=O)[nH][nH]c(=O)c12", "f"],
  ["CN(C)C(=O)Sc1nnc(C(C)(C)C)o1", "f"],
  ["NCCCCCOCCCCCN", "f"],
  ["CCOc1ccc(-n2c(C)c(COC(=O)NC)c(COC(=O)NC)c2C)cc1", "t"],
  ["CSC(=N)N1N=C2c3ccccc3CC[C@@H]2[C@@H]1c1ccccc1", "f"],
  ["CC(N)C(C)Cc1ccccc1 (stereo not given)", "f"],
  ["CCOc1ccc(S(=O)(=O)OCC)cc1", "f"],
  ["NC(=O)NC=O", "f"],
  ["C1COCCN1.C1COCCN1.N.N.[Cl-].[Pt+2]", "f"],
  ["OC(C1COCO1)C1OCOC1C1COCO1 (stereo not given)", "f"],
  ["OC(COc1cccc(C(F)(F)F)c1)CN1CCN(c2ccccc2)CC1 (stereo not given)", "t"],
  ["COc1ccc(C(=O)C(C(=O)C(=O)Nc2ccc(Cl)c(Cl)c2)c2ccc(OC)cc2)cc1 (stereo not given)", "f"]
]}

====

# Experimental details: NCI Yeast Anticancer Drug Screen. Data for the bub3 strain (AID 167)
# Condition context: S. cerevisiae bub3 mutant strain, at 50.0 µM, active compounds read high
The panel holds about 79,000 compounds, 15% with a hit somewhere; the sample as a whole holds those more often.
Each entry below carries its reported growth inhibition.

{"columns": ["Chemical smiles", "growth inhibition, %"],
 "data": [
  ["O=c1oc(-c2cccc(C[n+]3ccccc3)c2)nc2cc(Cl)ccc12", -7.1],
  ["CCc1c(C)c2n(c1C)C(=O)C=C2N(CC)CC", -2],
  ["O=C1C(c2ccccc2)=C(c2ccccc2)c2ccc(Cl)cc21", 0.45],
  ["CCCCCCC1=CC(=O)CC(=O)C1", 18],
  ["O=C(CCC(=O)NO)NO", -20.9],
  ["[CH3][Sn]([CH3])([O]C(=O)c1ccc2c(c1)OCO2)[O]C(=O)c1ccc2c(c1)OCO2", -9.7]
]}

====

Each entry below carries its reported growth inhibition.
# Experimental details: NCI Yeast Anticancer Drug Screen. Data for the cln2 rad14 strain (AID 165);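 further: 0% = growth equal to vehicle treated cultures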
# Condition context: S. cerevisiae cln2 rad14 strain, at 50.0 µM, active compounds read high
The panel holds about 79,000 compounds, 15% with a hit somewhere; the sample as a whole holds those more often. Calls of active or inactive are those of the source. Cut-off read from the data, not from the text of the source: active = growth inhibition above about 70%; inactive = the rest. Where a SMILES comes first, the peptide text is derived from it. [ ]: non-standard residue; d: D form. The star is where a group is joined. ξ: configuration not given here. Bz = O=C(c1ccccc1)*; Bn = c1ccc(C*)cc1; ξC = NC(CS)C(=O)O
Attribute measured: growth inhibition

{"columns": ["Compound", "Observed value"],
 "data": [
  ["OCC1CC(c2ccccc2)=NO1 (stereo not given)", "-20.2% (inactive)"],
  ["C#CCOc1c(C(=O)OCC)c(=O)n(C)c2ccccc12", "9.4% (inactive)"],
  ["CCCCC(CC)(CO)CCC (stereo not given)", "2.55% (inactive)"],
  ["CCCCNC(=O)c1cc2c(cc1Cl)Sc1nccn1S2(=O)=O", "9.2% (inactive)"],
  ["N#Cc1ccc(CCc2ccc(Cl)cc2)cc1", "-41.1% (inactive)"],
  ["Cc1cc(C)c(CN(C)C)c(CC(O)c2ccccc2)c1 (stereo not given)", "-15% (inactive)"],
  ["O=C1C(N=Nc2ccc([N+](=O)[O-])cc2)Sc2nc3ccccc3n21 (stereo not given)", "-14.5% (inactive)"],
  ["CCOC(=O)C(NC(=O)Cc1ccccc1)C(=O)O (stereo not given)", "-6.4% (inactive)"],
  ["Cc1c(Cl)cccc1NC(=O)Nc1ccc(S(N)(=O)=O)cc1", "1.4% (inactive)"],
  ["COC1/C=C/C(C)C(C(C)C(OC)C(C)CCC(=O)C(C)C(C/C=C/N(C)C=O)OC)OC(=O)/C=C/C=C(\\C)CC(OC)C(OC)C2=CC(=O)O[C@@H](C(C)C(OC)CC(OC)/C=C/C(C)C(O)C1)[C@H]2O (stereo not given in full)", "89.8% (active)"],
  ["CC(=O)OC1Cc2ccccc2C(OC(C)=O)Cc2ccccc21 (stereo not given)", "1.6% (inactive)"],
  ["CCOc1ccccc1NC(=O)Nc1cccc2ccccc12", "-22.3% (inactive)"],
  ["CC(/C=N/N(C)C1=NCCCCN1)=N/N(C)C1=NCCCCN1", "-21.6% (inactive)"],
  ["NC(=O)CCn1ccc2ccccc21", "-1.25% (inactive)"],
  ["CCOC(=O)Oc1ccc(C(=O)Oc2cc(Cl)c(Cl)cc2Cl)cc1OC", "18% (inactive)"],
  ["O=C(CNC(=O)c1ccccc1)NC(CSCc1ccccc1)C(=O)O (stereo not given) (Bz-Gly-[ξC](Bn)-OH)", "-19.1% (inactive)"],
  ["COC(=O)CSc1[nH]c2nc(C)nc(Nc3ccccc3)c2c1C#N", "-6.75% (inactive)"],
  ["CN(N=O)c1c([N+](=O)[O-])cc2c(c1[N+](=O)[O-])Cc1ccccc1-2", "17.6% (inactive)"],
  ["OCC1OC(n2cnc3[nH]cnc(=S)c32)C(O)C1O (stereo not given)", "1.05% (inactive)"],
  ["CCOC(=O)c1c(-c2ccccc2)c(C)cn1C", "11% (inactive)"],
  ["CCOC(=O)C(CO)NC(=O)C[NH-].CCOC(=O)C(CO)NC(=O)C[NH-].[Cl][Pt+2][Cl] (stereo not given)", "-34.4% (inactive)"],
  ["NC(=O)C(=CNC(=S)Nc1cccc(C(F)(F)F)c1)C(N)=O", "16.4% (inactive)"],
  ["CC1=C(c2ccco2)C(c2ccco2)OC1=O (stereo not given)", "-16.6% (inactive)"],
  ["CN(C)c1nc(N(C)C)c2cnn(C)c2n1", "-15.8% (inactive)"],
  ["CCNC(=O)OC(C)C(O)c1ccccc1 (stereo not given)", "6.8% (inactive)"],
  ["Cc1nc(C)c(C(=O)NN)cc1C(=O)NN", "7.45% (inactive)"],
  ["CCCC1(c2ccccc2)SCC(=O)NC1=O (stereo not given)", "-25.6% (inactive)"],
  ["O=[N+]([O-])c1ccc(CN(Cc2ccc([N+](=O)[O-])cc2)c2ccc3c(c2)C(O)c2ccccc2-3)cc1 (stereo not given)", "7.85% (inactive)"],
  ["Cn1c(Cl)cc2nc3ccccc3n2c1=O", "-11.3% (inactive)"],
  ["CCN(CC)CCNCc1c[nH]c(=S)[nH]c1=O", "-1.05% (inactive)"],
  ["O=S(=O)(NO)c1ccc(Cl)cc1", "23.8% (inactive)"],
  ["CC1=C2C(C)CC3OC(=O)C(C)C3C(O)C2CC1=O (stereo not given)", "-40.8% (inactive)"],
  ["CC(=O)OC1CCC2(C)C(=CCC3C2CCC2(C)C(C(C)C(=O)O)CCC32)C1 (stereo not given)", "-10.2% (inactive)"],
  ["CC(=O)N(c1ccc(NC(=O)c2ccc(N3C(=O)c4ccccc4C3=O)cc2[N+](=O)[O-])cc1)c1cc[n+](C)cc1", "9.35% (inactive)"],
  ["COc1ccc(/C=N/NC=O)cc1OC", "1.45% (inactive)"],
  ["CCC1CC2CCC(c3cc4c(cc3OC)N(C)C3C(O)(C(=O)OC)C(OC(C)=O)C5(CC)C=CCN6CCC43C65)c3[nH]c4ccccc4c3CCN(C1)C2 (stereo not given)", "-1% (inactive)"],
  ["O=S1(=O)Cc2ccccc2O1", "-3.2% (inactive)"],
  ["CCC(C)N=Cc1ccccc1O.CCC(C)N=Cc1ccccc1O.[Cu] (stereo not given)", "-44.7% (inactive)"],
  ["C=C(C)C(=O)O[C@H]1C[C@@]23O[C@@H]2CCC(=C[C@H]2OC(=O)C(=C)[C@H]12)COC3O (stereo not given in full)", "9.45% (inactive)"],
  ["O=c1[nH]c2ccccc2nc1/C=C/NC(=S)Nc1ccccc1", "6% (inactive)"],
  ["C=CCc1cc(C(C)=O)ccc1O", "-19.2% (inactive)"],
  ["COC(=O)c1nc(N)nc(N)c1[N+](=O)[O-]", "-15.2% (inactive)"],
  ["O=[N+]([O-])c1ccc(/C=C(/c2ccc([N+](=O)[O-])o2)S(=O)(=O)c2ccccc2)o1", "71.1% (active)"],
  ["COC(=O)/C=C(/C)c1ccccc1", "5.65% (inactive)"],
  ["COc1ccc(/C=C/C(=O)C(C)(CN(C)C)CN(C)C)cc1", "6.85% (inactive)"]
]}

Origin of measurements: PubChem BioAssay (NCI)
